- target.under.test: γ2δ3 TCR-hFc mutant S4 (E18Q in the Vδ3 chain) (human) (UniProt B7Z8K6)
- assay.text: Luminex beads; TCR-hFc captured by goat anti-human Fc; antibody titrated
readout: pEC50
Answers are plain numbers, as −log10 of the molar value.

I am curious: what pEC50 value has been reported for δ3-58 (antibody, V domains shown) VH: EVKLVESGGGLVQPGGSLKLSCAASGFTFSSYAMSWVRQTPEKRLEWVAYIRDGGGGTYYPDTVEGRFTISRDNAKNTLYLQMSSLKSEDTAMYYCARHPPMNDWFLYWGQGTLVTVSA VL: DIQMTQSPASLSVSVGETVTITCRASENIYSHLAWYQQKQGKSPQLLVYAATNLADGVPSRFSGSGSGTQYSLKINSLQSEDFGSYYCQHFWGTPYTFGGGTKLEIKR ?
10.70
